These data points were gathered from patent US20250129103A1.

In this section, each of the compounds is paired with its reported pIC50.
- EXPERIMENTAL TARGET: KRAS G12C (GMPPNP-loaded) and cRAF (Ras-binding domain) interaction (Homo sapiens (Human), UniProt P01116, C118S/C51S/C80L/G12C)
- Sequence (P01116 other isoform, or with tags, fused parts or gaps G12C/C51S/C80L/C118S): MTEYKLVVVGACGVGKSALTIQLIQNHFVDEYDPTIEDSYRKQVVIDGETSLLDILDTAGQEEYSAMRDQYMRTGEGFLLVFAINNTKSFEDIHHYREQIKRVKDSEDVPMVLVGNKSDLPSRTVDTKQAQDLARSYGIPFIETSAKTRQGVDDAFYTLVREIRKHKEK
- PROTOCOL DESCRIPTION: Inhibition of KRAS G12C and cRAF binding (AlphaScreen)
- CONDITION DESCRIPTION: KRAS G12C loaded with GMPPNP, cRaf RBD, 2 hours preincubation; read-out: Raf-1 RBD K-Ras IC50
pIC50: −log10 of the molar value.

SMILES RECORD	pIC50
N#CC[C@H]1CN(c2nc(OCC34CCCN3CCC4)nc3c2CCN(c2cccc4cccc(Cl)c24)C3)CCN1C(=O)/C=C/CN1CC2(COC2)C1	> 8.00
Cc1nccc(/C=C/C(=O)N2CCN(c3nc(OC[C@@]45CCCN4C[C@H](F)C5)nc4c(F)c(-c5ccccc5C(F)F)ncc34)C[C@@H]2CC#N)n1	< 6.30
CC(F)(F)c1noc(/C=C/C(=O)N2CCN(c3nc(OCC45CCCN4CCC5)nc4c3CCN(c3cccc5cccc(Cl)c35)C4)C[C@@H]2CC#N)n1	7.00 to 8.00

Turning now to a further compound:
Task: Value lookup for pIC50; key = N#CC[C@H]1CN(c2nc(OC[C@@]34CCCN3C[C@H](F)C4)nc3c(F)c(-c4cccc(Cl)c4C(F)(F)F)ncc23)CCN1C(=O)/C=C/CN1C[C@H]2C[C@@H]1CO2
Output: > 8.00
